Tested on: Mus musculus
protocol: Analgesic activity in Mus musculus Swiss albino (mouse) assessed as paw licking and jumping latency at 100 mg/kg, ip measured after 30 min by hot plate test
Type: functional
measurement-setup: route intraperitoneal
Mark class 1 for reported Activity of 70% or greater; mark class 0 for anything smaller.

Solved entries (count: 3):
INSERT INTO results (chemical_smiles, assigned_class) VALUES
  ('O=C(CSc1ccccc1C(=O)O)Nc1ccc(Cl)cc1', 'class 0'),
  ('CC(=O)Nc1ccc(O)cc1', 'class 0'),
  ('COc1ccc(NC(=O)CSc2ccccc2C(=O)O)cc1', 'class 0');

Problem: Tell me whether Activity is at least 70% here: "O=C(O)c1ccccc1S"
Result: class 0

Problem: Another compound to check: "O=C(CSc1ccccc1C(=O)O)Nc1ccc(Br)cc1"
Result: class 0

Problem: Now consider "Cc1ccc(NC(=O)CSc2ccccc2C(=O)O)cc1" .
Result: class 1

Problem: Similarly, "O=C(CSc1ccccc1C(=O)O)Nc1ccccc1" ?
Result: class 1

Problem: Same lookup for "O=C(CSc1ccccc1C(=O)O)Nc1ccc(C(=O)O)cc1" , please.
Result: class 0
